Tested on: U-2932
methodNotes: growth inhibition by drug plus 177Lu-lilotomab satetraxetan (1 - RLU/untreated control) (fraction); higher = stronger inhibition
conditionDescription: 10 nM; time (day): 6; 177Lu-lilotomab satetraxetan 1 ug/ml
Counter-ions that a name gives are not always drawn.
Given measured growth inhibition by drug plus 177Lu-lilotomab satetraxetan, output MET if it is greater than or equal to 0.1 and NOT MET if not.

Use the examples below as a reference point.
| molecule | target | qualitativeLabel |
| --- | --- | --- |
| CCOc1ccc(Nc2nc(-c3c(C)nc4ccccn34)cs2)cc1 | U-2932 | MET |
| COc1cc2/c(=N/c3ccc(Br)cc3F)nc[nH]c2cc1OCC1CCN(C)CC1 [Vandetanib (Zactima)] | U-2932 | NOT MET |
| O=C(NOC[C@H](O)CO)c1ccc(F)c(F)c1Nc1ccc(I)cc1F | U-2932 | MET |

Qu. Determine whether this molecule has growth inhibition by drug plus 177Lu-lilotomab satetraxetan no lower than 0.1: CC#C[C@]1(O)CC[C@H]2[C@@H]3CCC4=CC(=O)CCC4=C3[C@@H](c3ccc(N(C)C)cc3)C[C@@]21C [Mifepristone (Mifeprex)]
Ans. MET

Qu. Follow-up entry: O=C(NCCS(=O)(=O)c1ccc(C(F)(F)F)cn1)c1ccc(Cl)cc1
Ans. NOT MET

Qu. Check O=C1c2c(O)ccc(O)c2C(=O)c2c(NCCNCCO)ccc(NCCNCCO)c21 [Mitoxantrone Hydrochloride] too.
Ans. MET

Qu. Next entry: Fc1cc(-c2cccc3ncc(-c4cnn(C5CCNCC5)c4)nc23)cc(F)c1CN1CCOCC1
Ans. MET

Qu. Follow-up item: CC(=O)O[C@@]12CO[C@@H]1C[C@H](O)[C@@]1(C)C(=O)[C@H](O)C3=C(C)[C@@H](OC(=O)[C@H](O)[C@@H](NC(=O)OC(C)(C)C)c4ccccc4)C[C@@](O)([C@@H](OC(=O)c4ccccc4)[C@H]21)C3(C)C [Docetaxel (Taxotere)]
Ans. MET

Qu. Param item: COc1cc2nccc(Oc3ccc(NC(=O)C4(C(=O)Nc5ccc(F)cc5)CC4)cc3)c2cc1OC [XL-184 free base (Cabozantinib)]
Ans. MET

Qu. What do you get for O=C(/C=C/C#Cc1cccc(NS(=O)(=O)c2ccccc2)c1)NO [Oxamflatin] ?
Ans. MET

Qu. Note, next up: C[C@]12CCC(=O)C=C1CC[C@@H]1[C@@H]2[C@@H](O)C[C@@]2(C)[C@H]1CC[C@]2(O)C(=O)CO [Hydrocortisone (Cortisol)]
Ans. MET

Qu. Similarly, OC[C@H]1O[C@@H](n2cnc3c2N=CNC[C@H]3O)C[C@@H]1O [Pentostatin] ?
Ans. NOT MET

Qu. Next molecule up: CC(C)(C)c1ccc(S(=O)(=O)/C=C/C#N)cc1
Ans. NOT MET

Qu. What do you get for O=C(O)CCCc1ccccc1 [4-Phenylbutyrate] ?
Ans. MET

Qu. Repeat with COc1ccc(S(=O)(=O)Nc2cccnc2Nc2ccc(O)cc2)cc1
Ans. MET

---

For each entry below, report its growth inhibition by drug alone value.
System: RIVA
methodNotes: growth inhibition by drug alone (1 - RLU/untreated control) (fraction); higher = stronger inhibition
conditionDescription: 10 nM; time (day): 6; 177Lu-lilotomab satetraxetan 0 ug/ml
Where a name gives a salt, the structure may show the parent alone.

Field: example entries. Status: answers known.
| compound | target | testResult |
| --- | --- | --- |
| O=C(CCCCCCC(=O)Nc1ccccc1)NO [Vorinostat (SAHA)] | RIVA | -0.432 |
| CC[C@@]1(O)C(=O)OCc2c1cc1n(c2=O)Cc2cc3c(CN(C)C)c(O)ccc3nc2-1 [Topotecan HCl] | RIVA | 0.801 |

Dear colleague, could you send me growth inhibition by drug alone for each of the items below? Thanks.
1. Cc1ccc(-c2cc(C(F)(F)F)nn2-c2ccc(S(N)(=O)=O)cc2)cc1 [Celecoxib]
2. CN(C)C[C@@H]1CCn2cc(c3ccccc32)C2=C(C(=O)NC2=O)c2cn(c3ccccc23)CCO1

Ans.
-0.237
-0.214

Batch of 4 compounds: report growth inhibition by drug alone for each.
1. CO[C@H]1C[C@@H]2CC[C@@H](C)[C@@](O)(O2)C(=O)C(=O)N2CCCC[C@H]2C(=O)O[C@H]([C@H](C)C[C@@H]2CC[C@@H](OCCO)[C@H](OC)C2)CC(=O)[C@H](C)/C=C(\C)[C@@H](O)[C@@H](OC)C(=O)[C@H](C)C[C@H](C)/C=C/C=C/C=C/1C [Everolimus (RAD001)]
2. O=C(CCCCCCC(=O)Nc1cccnc1)NO [Pyroxamide]
3. CCN(CC)CCCCNc1ncc2cc(-c3cc(OC)cc(OC)c3)c(NC(=O)NC(C)(C)C)nc2n1
4. CCc1cc(Nc2nccc(-c3c(-c4ccc(OC)c(C(=O)Nc5c(F)cccc5F)c4)nc4ccccn34)n2)c(OC)cc1N1CCC(N2CCN(S(C)(=O)=O)CC2)CC1

Ans.
[0.653, -0.514, -0.211, -0.339]
